Record form. Attribute: FXa assay % of FXa alone, 5 nM Ab, 10 nM TFPI. Fill in for each entry.
biological target: recombinant human TFPI (tissue factor pathway inhibitor) (human, UniProt P10646 29-304); assay: cell-based or functional assay
Param answer (str): number followed by unit.

Bench note: what FXa assay % of FXa alone, 5 nM Ab, 10 nM TFPI did clone 1023 (antibody, V domains shown, scFv on yeast at selection; human IgG4/kappa IgG as purified) VH: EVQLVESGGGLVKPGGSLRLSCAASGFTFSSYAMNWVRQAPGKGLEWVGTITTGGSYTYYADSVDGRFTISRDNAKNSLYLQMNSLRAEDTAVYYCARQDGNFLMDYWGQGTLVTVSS VL: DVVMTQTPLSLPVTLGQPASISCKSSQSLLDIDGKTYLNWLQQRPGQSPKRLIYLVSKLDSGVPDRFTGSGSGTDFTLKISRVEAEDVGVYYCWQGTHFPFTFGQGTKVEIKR show?
16.2%

Now consider clone 16 (antibody, V domains shown) VH: EVQLVESGGGLVKPGGSLRLSCAASGFTFSHYAMTWVRQAPGKGLEWVSTITTGGSHTYYADSVEGRFTISRDNAKNSLYLQMNSLRAEDTAVYYCARQDGNFLMDYWGQGTLVTVSS VL: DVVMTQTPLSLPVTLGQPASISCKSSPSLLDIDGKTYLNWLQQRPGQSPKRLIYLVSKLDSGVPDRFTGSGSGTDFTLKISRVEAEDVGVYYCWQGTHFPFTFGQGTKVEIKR and answer again.
10.2%

Now consider clone 23 (antibody, V domains shown) VH: EVQLVESGGGLVKPGGSLRLSCAASGFTFSHYAMNWVRQAPGKGLEWVSTITTGGSYTYYADSVEGRFTISRDNAKNSLYLQMNSLRAEDTAVYYCARQDGHFLMDYWGQGTLVTVSS VL: DVVMTQTPLSLPVTLGQPASISCKSSPSLLDIDGKTYLNWLQQRPGQSPKRLIYLVSKLDSGVPDRFTGSGSGTDFTLKISRVEAEDVGVYYCWQGTHLPFTFGQGTKVEIKR and answer again.
7.4%

Now consider clone 21 (antibody, V domains shown) VH: EVQLVESGGGLVKPGGSLRLSCAASGFTFSSYAMNWVRQAPGKGLEWVSTITKGGSYTYYADSVDGRFTISRDNAKNSLYLQMNSLRAEDTAVYYCARQDGNFLMDYWGQGTLVTVSS VL: DVVMTQTPLSLPVTLGQPASISCKSSPSLLDSDGKTYLNWLQQRPGQSPKRLIYLVSKLDSGVPDRFTGSGSGTDFTLKISRVEAEDVGVYYCWQGTHFPFTFGQGTKVEIKR and answer again.
6%
